The reported numbers originate from PubChem BioAssay.

assay target: Botulinum neurotoxin type A (Clostridium botulinum)
test summary: BoNT/A light chain protease inhibitors, biochemical, multiplex microsphere flow cytometry, validation set (AID 588460)
stated conditions: at 10 µM, active compounds read high
Overview of recorded inhibition for various compounds
Please state the figure in %; there is no need to write the unit.

Reference set, count: 3
Give reported inhibition value for COc1ccc(-c2nc(NC(C)=O)sc2-c2ccc(OC)cc2)cc1 1

Give reported inhibition value for COc1ccc(-c2c(C)c3ccc(OCC(C)=O)cc3oc2=O)cc1 -0.4

Give reported inhibition value for Nc1ccncc1 -0.4

New cases:
Give reported inhibition value for CCOC(=O)NN1C(=O)c2ccccc2NC1c1ccc(OC)c(OC)c1 (configuration not stated) -0.6

Give reported inhibition value for Cc1ncc(CN2CCC(CO)(CCc3ccccc3)CC2)s1 0.2

Give reported inhibition value for CC(CCc1ccccc1)NCC(O)c1ccc(O)c(C(N)=O)c1 (configuration not stated) -1.4

Give reported inhibition value for CC(=O)Nc1nnc(S(N)(=O)=O)s1 -0.3

* * *

System: Botulinum neurotoxin type F light chain protease (Clostridium botulinum)
test summary: Botulinum neurotoxin type F light chain protease inhibition, multiplex microsphere flow cytometry, validation set (AID 588459)
stated conditions: multiplex microsphere protease substrate cleavage assay, at 10 µM, active compounds read high
Overview of recorded inhibition for various molecules
Please state the figure in %; there is no need to write the unit.

Give reported inhibition value for CCCCOc1ccc(C(=O)CCN2CCCCC2)cc1 3.4

Give reported inhibition value for CCN(CC)CCN1C(=O)C(=O)/C(=C(/O)c2c(C)[nH]c(C(=O)OC)c2C)C1c1cccnc1 (stereo not given) -1.7

Give reported inhibition value for O=c1ccc2ccccc2o1 -3

* * *

Overview of recorded inhibition for various compounds
Tested on: Botulinum neurotoxin type F light chain protease (Clostridium botulinum)
test summary: Botulinum neurotoxin type F light chain protease inhibition, multiplex microsphere flow cytometry, validation set (AID 588459)
stated conditions: multiplex microsphere protease substrate cleavage assay, at 10 µM, active compounds read high
Please state the figure in %; there is no need to write the unit.

Reference set, count: 3
Quote inhibition with test system Botulinum neurotoxin type F light chain protease (Clostridium botulinum) for C#C[C@]1(O)CC[C@H]2[C@@H]3CCC4=CC(=O)CC[C@@H]4[C@H]3CC[C@@]21CC -0.6

Quote inhibition with test system Botulinum neurotoxin type F light chain protease (Clostridium botulinum) for Cc1coc2cc3oc(=O)c(CCC(=O)O)c(C)c3cc12 3.6

Quote inhibition with test system Botulinum neurotoxin type F light chain protease (Clostridium botulinum) for Cc1cc(O)c2/c(=N\N)c(-c3csc(C)n3)coc2c1 -0.4

New cases:
Quote inhibition with test system Botulinum neurotoxin type F light chain protease (Clostridium botulinum) for c1ccc2c(c1)OCC(C1=NCCN1)O2 (stereo unspecified) -2.1

Quote inhibition with test system Botulinum neurotoxin type F light chain protease (Clostridium botulinum) for CC(=O)O[C@]1(C(C)=O)CC[C@H]2[C@@H]3C=C(Cl)C4=CC(=O)CC[C@]4(C)[C@H]3CC[C@@]21C -0.5

Quote inhibition with test system Botulinum neurotoxin type F light chain protease (Clostridium botulinum) for O=c1cc(CN2CCN(c3cccc(Cl)c3)CC2)c2cc(O)c(-c3ccccc3)cc2o1 -1.3

Quote inhibition with test system Botulinum neurotoxin type F light chain protease (Clostridium botulinum) for O=C(OCC1OC2OC3(CCCCC3)OC2C2OC3(CCCCC3)OC12)c1ccccc1 (stereo unspecified) -3.1

* * *

assay target: Integrin beta-1 (Homo sapiens) + Integrin alpha-4 (Homo sapiens) (UniProt P13612+P05556)
Sequence (P05556 whole entry, looked up): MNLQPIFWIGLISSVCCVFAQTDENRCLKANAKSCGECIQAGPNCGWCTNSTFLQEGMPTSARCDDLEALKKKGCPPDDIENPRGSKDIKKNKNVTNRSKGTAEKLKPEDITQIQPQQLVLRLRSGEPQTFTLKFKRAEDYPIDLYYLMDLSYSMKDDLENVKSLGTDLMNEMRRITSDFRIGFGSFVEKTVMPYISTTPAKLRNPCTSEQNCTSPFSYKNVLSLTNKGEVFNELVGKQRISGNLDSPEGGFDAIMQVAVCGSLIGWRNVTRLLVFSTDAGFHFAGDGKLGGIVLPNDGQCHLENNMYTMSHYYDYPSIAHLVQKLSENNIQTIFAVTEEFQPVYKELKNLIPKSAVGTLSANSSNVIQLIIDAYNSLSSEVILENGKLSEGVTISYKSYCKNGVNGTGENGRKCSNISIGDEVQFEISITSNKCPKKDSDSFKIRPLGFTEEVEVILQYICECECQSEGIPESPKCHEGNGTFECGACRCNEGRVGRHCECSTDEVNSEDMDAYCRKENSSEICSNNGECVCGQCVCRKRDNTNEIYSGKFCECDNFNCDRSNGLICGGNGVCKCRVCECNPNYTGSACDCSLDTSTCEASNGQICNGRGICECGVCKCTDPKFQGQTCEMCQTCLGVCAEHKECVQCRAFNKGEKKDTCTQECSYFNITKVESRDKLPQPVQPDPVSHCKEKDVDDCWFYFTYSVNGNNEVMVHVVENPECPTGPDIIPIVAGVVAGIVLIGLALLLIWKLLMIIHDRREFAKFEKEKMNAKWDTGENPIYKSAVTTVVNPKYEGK
Sequence (P13612 whole entry, looked up): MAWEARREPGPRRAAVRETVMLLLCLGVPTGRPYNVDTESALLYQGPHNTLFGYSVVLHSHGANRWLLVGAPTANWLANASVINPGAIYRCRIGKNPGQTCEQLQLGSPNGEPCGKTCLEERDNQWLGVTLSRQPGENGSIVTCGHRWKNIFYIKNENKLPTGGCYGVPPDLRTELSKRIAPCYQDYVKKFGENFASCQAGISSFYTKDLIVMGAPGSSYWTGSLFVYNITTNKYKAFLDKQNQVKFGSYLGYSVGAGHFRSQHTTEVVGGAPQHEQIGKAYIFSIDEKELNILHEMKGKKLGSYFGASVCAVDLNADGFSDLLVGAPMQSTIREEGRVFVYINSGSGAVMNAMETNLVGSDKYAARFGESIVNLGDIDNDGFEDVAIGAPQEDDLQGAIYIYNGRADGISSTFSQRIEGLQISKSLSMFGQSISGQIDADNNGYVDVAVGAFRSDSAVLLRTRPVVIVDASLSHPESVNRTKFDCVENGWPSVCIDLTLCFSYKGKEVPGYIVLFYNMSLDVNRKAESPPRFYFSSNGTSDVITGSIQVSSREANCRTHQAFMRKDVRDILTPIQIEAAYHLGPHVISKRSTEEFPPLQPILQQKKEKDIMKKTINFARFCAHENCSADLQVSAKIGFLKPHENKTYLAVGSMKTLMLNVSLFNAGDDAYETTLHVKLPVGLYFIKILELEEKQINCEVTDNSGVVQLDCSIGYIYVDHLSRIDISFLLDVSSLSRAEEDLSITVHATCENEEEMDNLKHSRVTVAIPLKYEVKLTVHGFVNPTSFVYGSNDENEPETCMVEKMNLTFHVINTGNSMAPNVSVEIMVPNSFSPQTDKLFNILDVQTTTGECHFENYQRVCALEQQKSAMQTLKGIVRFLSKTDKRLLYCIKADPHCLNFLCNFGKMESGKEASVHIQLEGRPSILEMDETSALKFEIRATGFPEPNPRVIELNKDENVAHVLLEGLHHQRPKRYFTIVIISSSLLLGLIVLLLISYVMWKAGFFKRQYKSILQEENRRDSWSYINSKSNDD
test summary: inhibition of HUTS-21 binding to VLA-4, pilot screen, VLA-4 allosteric modulator project, U937 cells, HUTS-21 mAb, flow cytometry, validation set (AID 2674);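 further: antibody binding induced by the VLA-4 ligand LDV present at three times its Kd; 0% = LDV ligand with antibody and no compound and 100% = antibody without LDV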
stated conditions: HUTS-21 LIBS mAb binding, at 6.7 µM, active compounds read high
Overview of recorded inhibition for various compounds
Please state the figure in %; there is no need to write the unit.

Give reported inhibition value for O=C1CSC2N1CCNC21CCCCC1 (configuration not stated) -31.6

Give reported inhibition value for O=Cc1cn(Cc2ccc(F)cc2)c2ccccc12 2.3

Give reported inhibition value for COc1ccc(-c2nc3ccccc3c(=O)o2)cc1 -19.5

Give reported inhibition value for CC1CCC[C@H](O)CCCCCc2cc(O)cc(O)c2C(=O)O1 (some centres not stated) 19

Give reported inhibition value for C[C@]12CC[C@@H](O)C[C@@H]1CC[C@@H]1[C@@H]2CC[C@]2(C)[C@@H](O)CC[C@@H]12 -7.79

Now for the compound whose inhibition we want.
Give reported inhibition value for Cc1cc(OCc2cc(C(=O)O)oc2C)c2c3c(c(=O)oc2c1)CCCC3 7.85
